# percent viability values compiled below
# Tested on: MCF10A
# method.summary: percent viability (nuclei count relative to siNT); higher = more viable cells
# measurement.conditions: 20 nM; 72 h
The reply should contain only the number, in %.

-- ask Query (sequence): UGAGGCCCUUGGGGCACAGUGG [hsa-miR-5008-5p] ; field requested: percent viability
-- reply 22.9

* * *

Item-by-item account of 5+ nucleoli phenotype percent effect
# Test system: MCF10A
# method.summary: 5+ nucleoli phenotype percent effect (relative to siNT 0% and siKIF11 100%); higher = more cells with five or more nucleoli
# measurement.conditions: 20 nM; 72 h
Numeric answer only, unit % assumed.

Recorded results for 3 sequences are shown here.
-- ask Returns the measured 5+ nucleoli phenotype percent effect for the input sequence. Input: CCUGGCAUAUUUGGUAUAACUU [hsa-miR-4720-5p]
-- reply 46.4

-- ask Could you tell me which 5+ nucleoli phenotype percent effect is on file for AUUCUCUCUGGAUCCCAUGGAU [hsa-miR-4768-5p] ?
-- reply -2.49

-- ask Report 5+ nucleoli phenotype percent effect for AAGCCUGCCCGGCUCCUCGGG [hsa-miR-596] please.
-- reply -11.4

New cases:
-- ask What value of 5+ nucleoli phenotype percent effect has been reported for the following sequence? GCAGCAGGGUGAAACUGACACA [hsa-miR-761]
-- reply 9.29

-- ask For the sequence shown here, ACAGUAGUCUGCACAUUGGUUA [hsa-miR-199a-3p] , give the reported 5+ nucleoli phenotype percent effect.
-- reply 18.7

-- ask Look up 5+ nucleoli phenotype percent effect for this sequence: AGGAUAGGAAGAAUGAAGUGCU [hsa-miR-5191]
-- reply -7.65

-- ask Any idea what its 5+ nucleoli phenotype percent effect is? The sequence is CAGCCGCCGCCUGUCUCCACAG [hsa-miR-6746-3p]
-- reply 7.39

-- ask Look at this sequence and give its reported 5+ nucleoli phenotype percent effect. AUCACAUUGCCAGGGAUUACC [hsa-miR-23b-3p]
-- reply -9.04

-- ask Please report the recorded 5+ nucleoli phenotype percent effect for ACAAAGUACAGCAUUAGCCUUAG [hsa-miR-3973] .
-- reply 0.19

-- ask Quick one: 5+ nucleoli phenotype percent effect of ACAAAGUGCUUCCCUUUAGAGU [hsa-miR-520h] ?
-- reply 11.9

-- ask Fill in: 5+ nucleoli phenotype percent effect of CAAAGUUUAAGAUCCUUGAAGU [hsa-miR-561-3p] is ___
-- reply 23.4

-- ask Recorded 5+ nucleoli phenotype percent effect of CUGGACUUUGAUCUUGCCAUAA [hsa-miR-8058] , please.
-- reply -11.1
